Target: T1, soluble human CD3 epsilon chain (human, UniProt P07766 23-126)
T1 construct: also called CD3ε
T1 sequence (P07766 23-126 limits assumed): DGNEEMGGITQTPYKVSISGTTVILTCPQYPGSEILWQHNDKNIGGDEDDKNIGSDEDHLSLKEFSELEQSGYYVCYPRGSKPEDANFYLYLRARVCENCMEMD
Test: SPR
property-label: Kd (nM)
Please state the figure in nM; there is no need to write the unit.

For the binder TR01H040-E22Hh/none-Hi-Kn010G3/TR01L016-k0 (antibody, V domains shown, one-arm) VH: QVQLVESGGGLVQPGRSLRLSCAASGFTFSNAWMHWVRQAPGKGLEWVAQIKDKSQNYATYYAESVKGRFTISRADSKNSIYLQMNSLKTEDTAVYYCRYVHYSASYGVDAWGQGTTVTVSS VL: DIVMTQSPLSLPVTPGEPASISCRSSQSPVHSNRNTYLHWYLQKPGQSPQLLIYKVSNRFSGVPDRFSGSGSGTDFTLKISRVEAEDVGVYYCYQGTQVPYTFGQGTKLEIK , give its reported Kd.
2.52

For the binder TR01H011-E22Hh/none-Hi-Kn010G3/L0000-k0 (antibody, V domains shown, one-arm) VH: QVQLVESGGGLVQPGRSLRLSCAASGFTFSNAWMHWVRQAPGKGLEWVAQIKAKSNNYATYYAESVKGRFTISRADSKNSIYLQMNSLKTEDTAVYYCRYVHYGASYGVDIWGQGTTVTVSS VL: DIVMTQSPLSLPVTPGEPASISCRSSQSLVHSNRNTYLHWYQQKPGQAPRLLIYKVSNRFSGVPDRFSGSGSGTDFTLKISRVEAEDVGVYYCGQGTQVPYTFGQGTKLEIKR , give its reported Kd.
37.1
